Entries with reported pIC50 on human DNMT1 (Homo sapiens)
pIC50: −log10 of the molar value.

Previously resolved entries follow.
compound | value measured
CCc1ccc(-c2cc(N(C)CC3CCN(C)CC3)c3cc(OC)c(OCC4CCN(C)CC4)cc3n2)o1 | 5.00 to 6.00
COc1cc2c(N(C)CC3CCN(C)CC3)cc(-c3ccc(C)o3)nc2cc1OCCCN1CCC(F)C1 (stereo not shown) | 5.00 to 6.00
COc1cc2c(N(C)CC3CCN(C)CC3)cc(-c3ccc(C)[nH]3)nc2cc1OCCCN1CCCC1 | 6.30 to 7.00

**Q:** Identify the measured pIC50 of COc1cc2c(N(C)C3CCN(C)CC3)cc(-c3cc(C)oc3C)nc2cc1OCCCN1CCCC1 for human DNMT1 (Homo sapiens).
**A:** 5.00 to 6.00

* * *

- experimental target: human G9a enzyme (Homo sapiens)
pIC50: −log10 of the molar value.
quantity measured: pIC50

Previously resolved entries follow.
compound | value measured
COc1cc2c(N(C)C3CC4(CCN(C(C)C)CC4)C3)cc(-c3ccc(C)o3)nc2cc1OC1CC2(C1)CN(CC#N)C2 (stereo not shown) [Compound 1-15] | < 5.00
COc1cc2c(OCC3CCN(C)CC3)cc(-c3ccc(C)[nH]3)nc2cc1OCCCN1CCCC1 [Compound 3-03] | 6.30 to 7.00
COc1cc2c(N(C)CC3CCNCC3)cc(-c3ccccc3)nc2cc1OCCCN1CCCC1 [Compound 1-23] | 6.30 to 7.00
COc1cc2c(N(C)C)cc(-c3ccc(C)[nH]3)nc2cc1OCCCN1CCCC1 [Compound 1-11] | 6.30 to 7.00
CNC1CCN(c2cc(-c3ccc4occc4c3)nc3cc(OCCCN4CCCC4)c(OC)cc23)CC1 [Compound 2-04] | < 5.00

**Q:** Identify the measured pIC50 of COc1cc2c(N(C)C3CC4(CCN(C(C)C)CC4)C3)cc(-c3ccc(C)o3)nc2cc1OCCCN1CCCC1 [Compound 1-09] for human G9a enzyme (Homo sapiens).
**A:** 6.00 to 6.30

**Q:** Identify the measured pIC50 of CNCC1CCN(c2cc(C3CCCCC3)nc3cc(OCCCN4CCCC4)c(OC)cc23)CC1 [Compound 2-08] for human G9a enzyme (Homo sapiens).
**A:** > 7.00

**Q:** Identify the measured pIC50 of CNCC1CCN(c2cc(-c3ccccc3)nc3cc(OCCCN4CCCC4)c(OC)cc23)CC1 [Compound 2-09] for human G9a enzyme (Homo sapiens).
**A:** 6.30 to 7.00

**Q:** Identify the measured pIC50 of CCc1ccc(-c2cc(N(C)CC3CCN(C)CC3)c3cc(OC)c(OCC4CCN(C)CC4)cc3n2)o1 [Compound 1-16] for human G9a enzyme (Homo sapiens).
**A:** < 5.00

**Q:** Identify the measured pIC50 of COc1cc2c(N(C)C3CCC4(CC3)CN(C)C4)cc(-c3ccc(C)o3)nc2cc1OCCCN1CCCC1 [Compound 1-18] for human G9a enzyme (Homo sapiens).
**A:** 5.00 to 6.00

**Q:** Identify the measured pIC50 of COc1cc2c(N(C)CC3CCN(C)CC3)cc(-c3cc(C)oc3C)nc2cc1OCCCN1CCCC1 [Compound 1-19] for human G9a enzyme (Homo sapiens).
**A:** 6.00 to 6.30

* * *

- experimental target: human G9a enzyme (Homo sapiens)
- Sequence (Q96KQ7 1-1210): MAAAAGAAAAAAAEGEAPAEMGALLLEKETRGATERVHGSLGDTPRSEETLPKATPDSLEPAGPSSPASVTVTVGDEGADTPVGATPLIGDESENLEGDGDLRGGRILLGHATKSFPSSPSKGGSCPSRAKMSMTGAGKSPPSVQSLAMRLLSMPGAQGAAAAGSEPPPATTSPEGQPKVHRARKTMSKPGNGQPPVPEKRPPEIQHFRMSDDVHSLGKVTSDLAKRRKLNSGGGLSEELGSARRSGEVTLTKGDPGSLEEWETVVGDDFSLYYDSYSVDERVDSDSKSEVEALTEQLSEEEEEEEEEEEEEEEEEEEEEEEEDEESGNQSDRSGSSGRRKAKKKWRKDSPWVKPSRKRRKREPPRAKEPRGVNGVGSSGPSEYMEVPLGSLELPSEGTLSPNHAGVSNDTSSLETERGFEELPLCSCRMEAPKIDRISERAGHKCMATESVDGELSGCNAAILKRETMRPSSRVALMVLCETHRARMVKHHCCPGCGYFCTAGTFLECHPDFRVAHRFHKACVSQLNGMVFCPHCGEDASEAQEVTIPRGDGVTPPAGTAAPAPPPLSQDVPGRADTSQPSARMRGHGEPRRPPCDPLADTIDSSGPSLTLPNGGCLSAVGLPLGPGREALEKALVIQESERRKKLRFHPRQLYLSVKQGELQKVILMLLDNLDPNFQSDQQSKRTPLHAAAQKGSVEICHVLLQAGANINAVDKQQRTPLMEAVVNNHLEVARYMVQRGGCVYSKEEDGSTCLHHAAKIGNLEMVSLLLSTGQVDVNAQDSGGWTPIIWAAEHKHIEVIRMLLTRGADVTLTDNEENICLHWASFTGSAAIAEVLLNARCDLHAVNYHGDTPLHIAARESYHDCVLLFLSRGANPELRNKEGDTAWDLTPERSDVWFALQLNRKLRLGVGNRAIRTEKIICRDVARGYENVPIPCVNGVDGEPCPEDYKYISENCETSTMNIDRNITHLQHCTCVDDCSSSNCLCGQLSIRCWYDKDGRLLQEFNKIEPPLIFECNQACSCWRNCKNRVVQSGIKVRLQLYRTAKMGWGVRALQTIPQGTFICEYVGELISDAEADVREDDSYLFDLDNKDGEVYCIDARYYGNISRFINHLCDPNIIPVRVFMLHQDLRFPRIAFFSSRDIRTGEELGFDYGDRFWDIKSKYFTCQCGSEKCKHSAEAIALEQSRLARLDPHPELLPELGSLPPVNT
pIC50: −log10 of the molar value.
quantity measured: pIC50

Previously resolved entries follow.
molecule | pIC50
COc1cc2c(N(C)CC3CCN(C)CC3)cc(-c3ccc(C)o3)nc2cc1OCCCN1CCC(F)C1 (stereo not shown) | < 5.00
COc1cc2c(OCC3CCN(C)CC3)cc(-c3ccc(C)o3)nc2cc1OCCCN1CCCC1 | 5.00 to 6.00
COc1cc2c(C=C3CCN(C)CC3)cc(-c3ccc(C)o3)nc2cc1OCCCN1CCCC1 | < 5.00
COc1cc2c(N3CCC(C(C)(C)N)CC3)cc(-c3ccc(C)o3)nc2cc1OCCCN1CCCC1 | 6.00 to 6.30

Now turn to the next molecule.
**Q:** pIC50 lookup needed for COc1cc2c(N3CCC(CO)CC3)cc(-c3ccc(C)o3)nc2cc1OCCCN1CCCC1 , thanks.
**A:** 5.00 to 6.00

* * *

Entries with reported pIC50 on human DNMT1 (Homo sapiens, UniProt P26358)
Sequence (P26358 whole entry): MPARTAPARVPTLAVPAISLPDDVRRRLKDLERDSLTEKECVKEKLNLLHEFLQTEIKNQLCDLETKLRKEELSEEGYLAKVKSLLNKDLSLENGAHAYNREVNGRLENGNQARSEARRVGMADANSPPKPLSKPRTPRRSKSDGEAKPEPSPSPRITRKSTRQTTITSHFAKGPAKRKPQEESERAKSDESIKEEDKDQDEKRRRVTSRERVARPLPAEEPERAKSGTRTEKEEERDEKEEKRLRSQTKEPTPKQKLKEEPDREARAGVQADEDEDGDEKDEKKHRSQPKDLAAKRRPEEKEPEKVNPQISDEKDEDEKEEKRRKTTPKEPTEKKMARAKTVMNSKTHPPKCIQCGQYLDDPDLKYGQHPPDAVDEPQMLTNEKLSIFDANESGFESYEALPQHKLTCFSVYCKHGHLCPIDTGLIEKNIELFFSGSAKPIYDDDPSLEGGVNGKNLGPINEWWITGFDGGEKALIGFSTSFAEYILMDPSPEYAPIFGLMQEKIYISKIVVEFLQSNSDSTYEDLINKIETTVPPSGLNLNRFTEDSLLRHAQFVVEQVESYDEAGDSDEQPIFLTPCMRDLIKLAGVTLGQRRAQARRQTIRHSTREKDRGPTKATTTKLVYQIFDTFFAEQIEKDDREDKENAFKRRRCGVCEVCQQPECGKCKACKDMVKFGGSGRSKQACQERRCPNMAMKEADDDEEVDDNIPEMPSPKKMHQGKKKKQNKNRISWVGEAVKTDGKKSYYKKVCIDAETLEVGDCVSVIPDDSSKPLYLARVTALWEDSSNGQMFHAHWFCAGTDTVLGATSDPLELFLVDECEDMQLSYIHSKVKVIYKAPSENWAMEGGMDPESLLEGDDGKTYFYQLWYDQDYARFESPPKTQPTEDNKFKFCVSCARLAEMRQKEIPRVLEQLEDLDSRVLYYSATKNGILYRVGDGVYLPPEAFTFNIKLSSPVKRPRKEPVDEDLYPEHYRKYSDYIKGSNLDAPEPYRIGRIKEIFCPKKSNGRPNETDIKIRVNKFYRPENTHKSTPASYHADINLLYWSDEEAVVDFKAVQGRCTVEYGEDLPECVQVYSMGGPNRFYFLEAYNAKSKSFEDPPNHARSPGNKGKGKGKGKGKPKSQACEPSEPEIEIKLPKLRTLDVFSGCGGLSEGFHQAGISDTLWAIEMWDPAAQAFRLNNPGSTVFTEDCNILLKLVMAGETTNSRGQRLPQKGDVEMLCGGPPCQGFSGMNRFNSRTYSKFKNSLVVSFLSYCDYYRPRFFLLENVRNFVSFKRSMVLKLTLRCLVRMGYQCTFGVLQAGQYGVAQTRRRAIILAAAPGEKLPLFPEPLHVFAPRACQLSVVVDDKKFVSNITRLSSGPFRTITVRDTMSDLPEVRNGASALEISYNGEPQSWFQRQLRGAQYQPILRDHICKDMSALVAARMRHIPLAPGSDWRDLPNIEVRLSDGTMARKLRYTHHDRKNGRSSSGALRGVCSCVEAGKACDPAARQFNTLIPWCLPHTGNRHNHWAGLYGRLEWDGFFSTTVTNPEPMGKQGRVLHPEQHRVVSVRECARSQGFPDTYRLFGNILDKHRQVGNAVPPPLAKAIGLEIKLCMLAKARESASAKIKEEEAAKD
pIC50: −log10 of the molar value.

Previously resolved entries follow.
compound structure string | pIC50
COc1cc2c(N(C)C)cc(-c3ccc(C)[nH]3)nc2cc1OCCCN1CCCC1 | 5.00 to 6.00
COc1cc2c(N3CCC(C(C)(C)N)CC3)cc(-c3ccc(C)o3)nc2cc1OCCCN1CCCC1 | 5.00 to 6.00

**Q:** pIC50 lookup needed for CCc1ccc(-c2cc(N(C)CC3CCN(C)CC3)c3cc(OC)c(OCCCN4CCCC4)cc3n2)o1 , thanks.
**A:** 6.30 to 7.00

**Q:** pIC50 lookup needed for CNC1CCN(c2cc(-c3ccc4occc4c3)nc3cc(OCCCN4CCCC4)c(OC)cc23)CC1 , thanks.
**A:** 5.00 to 6.00

**Q:** pIC50 lookup needed for COc1cc2c(N(C)C3CC4(CCN(C(C)C)CC4)C3)cc(-c3ccc(C)o3)nc2cc1OCCCN1CCCC1 , thanks.
**A:** 6.00 to 6.30

* * *

Entries with reported IC50 on human DNMT1 (Homo sapiens)

compound structure string | IC50
COc1cc2c(OCC3CCN(C)CC3)cc(-c3ccc(C)[nH]3)nc2cc1OCCCN1CCCC1 | 500 to 1000 nM
COc1cc2c(N(C)CC3CCN(C)CC3)cc(C3CCCCC3)nc2cc1OCCCN1CCCC1 | 1000 to 10000 nM
COc1cc2c(OCC3CCN(C)CC3)cc(-c3ccc(C)o3)nc2cc1OCCCN1CCCC1 | 500 to 1000 nM
COc1cc2c(N(C)CC3CCN(C)CC3)cc(-c3cc(C)oc3C)nc2cc1OCCCN1CCCC1 | 500 to 1000 nM
COc1cc2c(OC3CCN(C)CC3)cc(-c3ccc(C)o3)nc2cc1OC1CC2(C1)CN(C)C2 | 1000 to 10000 nM

Now turn to the next compound.
**Q:** Identify the measured IC50 of COc1cc2c(C=C3CCN(C)CC3)cc(-c3ccc(C)o3)nc2cc1OCCCN1CCCC1 for human DNMT1 (Homo sapiens).
**A:** 1000 to 10000 nM
